Where do the numbers come from? From PubChem BioAssay AID436.

system-under-test: Ubiquitin carboxyl-terminal hydrolase BAP1 (Homo sapiens)
assay-summary: inhibitors of BAP1 deubiquitinase, primary screen, biochemical, Ub-AMC fluorescence, kinetic (AID 436)
study-conditions: recombinant BAP1, Ub-AMC hydrolysis fluorescence kinetic; at 20 µM
Hit rate of the full screen: of about 72,000 compounds, about 350 (0.49%) were called active.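 How the source made its calls: active means activity remaining at or below 50% of control, provided the compound also passes the data quality filters; inactive means the rest, including low values that fail the filters.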 Shown is part of a subset that was picked to be rich in actives.
Outcome field: choose from T = active, F = inactive

Previously resolved entries follow.
[
  {
    "compound": "Cc1ccc(Cn2c(C)c3cnn(CC(=O)N4CCC5(CC4)OCCO5)c(=O)c3c2C)cc1",
    "label-class": "F"
  },
  {
    "compound": "O=C1c2ccccc2C(=O)N1Cc1nc2ccccc2c(=O)n1-c1nccs1",
    "label-class": "F"
  },
  {
    "compound": "CCCCC[n+]1ccc(-c2cc[n+](CCCCC)cc2)cc1",
    "label-class": "F"
  },
  {
    "compound": "O=C(O)C1C2CCC(O2)C1C(=O)O (stereo not given)",
    "label-class": "F"
  }
]

Moving on to the next compound.
Problem: // outcome(item) with item = CCCCCn1c(=O)c(C(=O)NCc2ccccn2)c(O)c2ccccc21
Solution: T
